Value source: the supplement of paper PMC8671470

Recorded cell viability for the following compounds
Tested on: KCL-22
Experiment: cell viability (% survival relative to DMSO control, bortezomib = 0%); higher = less cytotoxic
Settings: 10 nM; 72 h
Field: numeric (%). Do not append units.

Solved cases (2 shown):
Can you look up the measured cell viability of O=C(Oc1cccc(F)c1OC(=O)c1cccc(O)c1)c1cccc(O)c1 [WZB117] for me? 91.4

Now this one: Oc1ncc(F)c(O)n1 [5-fluorouracil] 120

Continuing:
Can you look up the measured cell viability of Clc1cc(Cl)c(OCC#CI)cc1Cl [Haloprogin] for me? 97.1

---

Tested on: SHI-1
Experiment: cell viability (% survival relative to DMSO control, bortezomib = 0%); higher = less cytotoxic
Details: 10000 nM; 72 h
property.name: cell viability (%)
Field: numeric (%). Do not append units.

Fill in the recorded cell viability for this molecule, with SHI-1 as test system: CC(C)(CCCCCCCCCCC(C)(C)CC(=O)O)CC(=O)O [MEDICA 16] 90.7

Now this one: O=[As]O[As]=O (centres undefined) [Arsenic trioxide] 57.6

Now this one: Cl.NC1=CCCN1Cc1nc(O)nc(O)c1Cl [Tipiracil] 116

Now this one: Cl.OC[C@H]1NC[C@H](O)[C@@H](O)[C@H]1O [Migalastat] 107

Now this one: O=c1oc2c(cc1O)oc(=O)c1cc(O)c(O)c(O)c12 [Galloflavin] 104

Now this one: CC1Cc2ccccc2N1NC(=O)c1ccc(Cl)c(S(N)(=O)=O)c1 (centres undefined) [Indapamide] 98

Now this one: Nc1nc(O)c2c(CCc3ccc(C(=O)N[C@@H](CCC(=O)O)C(=O)O)cc3)c[nH]c2n1 [Pemetrexed] 43.4

Now this one: CNC(=C[N+](=O)[O-])NCCSCc1ccc(CN(C)C)o1 [Ranitidine] 104

Now this one: OCCN1C[C@H](O)[C@@H](O)[C@H](O)[C@H]1CO [Miglitol] 103

Now this one: Nc1ccn([C@@H]2O[C@H](CO)[C@@H](O)C2(F)F)c(=O)n1 [Gemcitabine] -0.276

Now this one: CC(=O)N1CCN(c2ccc(OC[C@@H]3CO[C@@](Cn4ccnc4)(c4ccc(Cl)cc4Cl)O3)cc2)CC1 (racemic) [Ketoconazole] 97.5

Now this one: CCCC(CCC)C(=O)O [Valproic acid] 101

Now this one: Cn1cc(C[C@@H](N)C(=O)O)c2ccccc21 [Indoximod] 104

Now this one: NC(CCC(=O)NC(CSCc1ccc(Br)cc1)C(=O)NCC(=O)OC1CCCC1)C(=O)OC1CCCC1 (centres undefined) [S-para-Bromobenzylglutathione cyclopentyl diester] 99.9

Now this one: NCc1ccc(S(N)(=O)=O)cc1 [4-Homosulfanilamide] 111

Now this one: Cc1cc(O)c2c(c1)C(=O)c1cc(O)cc(O)c1C2=O [Emodin] 93.5
